- System: Escherichia coli
- experiment summary: Antibacterial activity against Escherichia coli NIHJ by spread plate method
- Format: functional
Recorded MIC by entry
Return type: number; implicit unit µg/mL.

Record excerpt, results attached:
CCCCCCCCCCCCCC[P+](C)(C)Cc1ccc(CC)cc1.[Cl-]    200
CCCCCCCCCCCCCC[P+](C)(C)C.[Cl-] [TETRADECYLTRIMETHYLPHOSPHONIUM CHLORIDE]    12.5
CCCCCCCCCC[P+](C)(C)CCCCCCCCCC.[Cl-] [DIDECYLDIMETHYLPHOSPHONIUM CHLORIDE]    3.13
CCCCCCCCCC[P+](C)(C)C.[Cl-] [DECYLTRIMETHYLPHOSPHONIUM CHLORIDE]    200

Then this compound:
Task: What value of MIC has been reported for the following compound? `CCCCCCCCCC[P+](C)(C)Cc1ccc(CC)cc1.[Cl-]`
Output: 12.5

====

- Test system: Escherichia coli
- experiment summary: Antibacterial activity against Escherichia coli IFO 3806 by spread plate method
- Assay type: functional
Each record here notes measured MIC.

CCCCCCCCCCCCCC[P+](C)(C)Cc1ccc(CC)cc1.[Cl-]    200 µg/mL
CCCCCCCCCCCCCC[P+](C)(C)C.[Cl-] [TETRADECYLTRIMETHYLPHOSPHONIUM CHLORIDE]    12.5 µg/mL
CCCCCCCCCC[P+](C)(C)Cc1ccc(CC)cc1.[Cl-]    12.5 µg/mL
CCCCCCCCCC[P+](C)(C)CCCCCCCCCC.[Cl-] [DIDECYLDIMETHYLPHOSPHONIUM CHLORIDE]    3.13 µg/mL
CCCCCCCCCCCCCC[P+](C)(C)CCCCCCCCCCCCCC.[Cl-] [DITETRADECYLDIMETHYLPHOSPHONIUM CHLORIDE]    > 200 µg/mL
CCCCCCCCCCCCCCCCCC[P+](C)(C)Cc1ccc(CC)cc1.[Cl-]    > 200 µg/mL
CCCCCCCCCCCCCCCCCC[P+](C)(C)C.[Cl-] [OCTADECYLTRIMETHYLPHOSPHONIUM CHLORIDE]    > 200 µg/mL
CCCCCCCCCCCCCCCCCC[P+](C)(C)CCCCCCCCCCCCCCCCCC.[Cl-] [DIOCTADECYLDIMETHYLPHOSPHONIUM CHLORIDE]    > 200 µg/mL

Task: Can you share its MIC? I mean this molecule: `CCCC[P+](CCCC)(CCCC)Cc1ccc(CC)cc1.[Cl-]`
Output: > 200 µg/mL

Task: What value of MIC has been reported for the following molecule? CCCCCCCCCC[P+](C)(C)C.[Cl-] [DECYLTRIMETHYLPHOSPHONIUM CHLORIDE]
Output: 200 µg/mL

====

- Tested on: Trichoderma harzianum
- experiment summary: Antifungal activity against Trichoderma harzianum by spread plate method
- Format: functional
measured metric: MIC

Guide cases for MIC, answers given:
CCCCCCCCCC[P+](C)(C)C.[Cl-] [DECYLTRIMETHYLPHOSPHONIUM CHLORIDE]    > 200 µg/mL
CCCCCCCCCCCCCC[P+](C)(C)Cc1ccc(CC)cc1.[Cl-]    > 200 µg/mL
CCCCCCCCCCCCCC[P+](C)(C)CCCCCCCCCCCCCC.[Cl-] [DITETRADECYLDIMETHYLPHOSPHONIUM CHLORIDE]    > 200 µg/mL
CCCCCCCCCCCCCCCCCC[P+](C)(C)C.[Cl-] [OCTADECYLTRIMETHYLPHOSPHONIUM CHLORIDE]    > 200 µg/mL
CCCCCCCCCCCCCCCCCC[P+](C)(C)CCCCCCCCCCCCCCCCCC.[Cl-] [DIOCTADECYLDIMETHYLPHOSPHONIUM CHLORIDE]    > 200 µg/mL

With those in mind, consider the next molecule.
Task: What does the data say about its MIC? Entry: CCCCCCCCCC[P+](C)(C)CCCCCCCCCC.[Cl-] [DIDECYLDIMETHYLPHOSPHONIUM CHLORIDE]
Output: 200 µg/mL

====

- Tested on: Trichoderma harzianum
- experiment summary: Antifungal activity against Trichoderma harzianum by spread plate method
- Type: functional
Catalogue of molecules with associated MIC

// worked examples, MIC included
CCCCCCCCCCCCCC[P+](C)(C)C.[Cl-] [TETRADECYLTRIMETHYLPHOSPHONIUM CHLORIDE]    200 µg/mL
CCCCCCCCCCCCCCCCCC[P+](C)(C)Cc1ccc(CC)cc1.[Cl-]    > 200 µg/mL
CCCC[P+](CCCC)(CCCC)Cc1ccc(CC)cc1.[Cl-]    > 200 µg/mL

Task: Param item = `CCCCCCCCCC[P+](C)(C)Cc1ccc(CC)cc1.[Cl-]` ; retrieve measured MIC.
Output: > 200 µg/mL
